Target sequence: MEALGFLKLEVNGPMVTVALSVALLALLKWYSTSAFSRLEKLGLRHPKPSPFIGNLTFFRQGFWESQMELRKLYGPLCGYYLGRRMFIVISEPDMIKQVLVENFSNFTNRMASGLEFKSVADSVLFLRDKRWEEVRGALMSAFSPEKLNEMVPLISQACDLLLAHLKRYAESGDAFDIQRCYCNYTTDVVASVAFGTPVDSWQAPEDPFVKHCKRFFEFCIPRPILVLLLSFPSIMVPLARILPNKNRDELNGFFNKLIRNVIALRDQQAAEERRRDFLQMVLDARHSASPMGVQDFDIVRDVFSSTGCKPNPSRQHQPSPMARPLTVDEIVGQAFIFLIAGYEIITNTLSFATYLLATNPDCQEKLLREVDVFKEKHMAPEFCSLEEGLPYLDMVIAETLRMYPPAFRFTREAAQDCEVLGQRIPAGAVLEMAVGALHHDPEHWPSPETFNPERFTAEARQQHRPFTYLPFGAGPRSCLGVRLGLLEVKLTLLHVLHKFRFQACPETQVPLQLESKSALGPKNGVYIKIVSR
pIC50: −log10 of the molar value.
experimental_endpoint: pIC50

Given O=C(O)CCCCc1cn(-c2cccnc2)c2ccccc12 , state its recorded pIC50. ~8.96

I would be grateful if you could share the reported pIC50 for O=C(O)CCCCc1cn(-c2cccnc2)c2ccc(Cl)cc12 . ~8.59
